molecular target: human Farnesoid X receptor ligand-binding domain/Gal4 DNA binding domain chimera (Homo sapiens (Human)); assay: Cell-based assay of FXR activation (FXR-UAS-bla HEK 293T beta-lactamase reporter); settings: HEK-293T; extent of activation relative to GW4064; cellular FXR beta-lactamase reporter assay; read-out: % Efficacy
Sequence (Q96RI1 262-486, change not shown): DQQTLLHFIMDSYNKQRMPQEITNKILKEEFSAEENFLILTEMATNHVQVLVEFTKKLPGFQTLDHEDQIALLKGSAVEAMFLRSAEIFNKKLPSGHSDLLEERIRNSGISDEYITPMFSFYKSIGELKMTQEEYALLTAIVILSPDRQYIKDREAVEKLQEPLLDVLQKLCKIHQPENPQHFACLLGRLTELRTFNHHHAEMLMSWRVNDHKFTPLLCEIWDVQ
Sequence (P04386 1-147 partner): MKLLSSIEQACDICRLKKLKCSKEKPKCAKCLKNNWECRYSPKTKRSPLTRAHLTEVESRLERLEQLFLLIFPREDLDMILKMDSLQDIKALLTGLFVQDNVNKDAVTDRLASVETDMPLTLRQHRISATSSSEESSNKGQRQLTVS
Overview of reported Emax across a group of compounds:
Please reply with the bare figure in % and do not write the unit itself.

Past entries and their recorded results:
compound	Emax [%]
O=C(NS(=O)(=O)C1CC1)c1ccc(N2C[C@@H]3C[C@H]2C[C@H]3OCc2c(-c3c(Cl)cccc3Cl)noc2C2(F)CC2)cc1	110
O=C(O)c1ccc(N2C[C@@H]3C[C@H]2C[C@H]3OCc2c(-c3c(Cl)cccc3Cl)noc2C2CC2)c(F)c1F	111
O=C(O)c1cc(C2CCCC2)c2nc(N3C[C@H]4C[C@@H]3C[C@@H]4OCc3c(-c4c(Cl)cccc4Cl)noc3C3CC3)sc2c1	100
O=C(O)c1ccc(N2C(=O)[C@@H]3C[C@H]2C[C@@H]3OCc2c(-c3c(Cl)cccc3Cl)noc2C2CC2)cc1	0
O=C(O)c1ccc(N2C[C@@H]3C[C@H]2C[C@H]3OC(=O)c2c(-c3c(Cl)cccc3Cl)noc2C2(F)CC2)c(F)c1	107
O=C(O)c1cc(F)c2nc(N3C[C@@H]4C[C@H]3C[C@H]4OCc3c(C4CCC5(CC4)CC5)noc3C3CC3)sc2c1	123

Req: # query: Emax of entry O=C(O)[C@H]1CCc2cc(N3C[C@@H]4C[C@H]3C[C@H]4OCc3c(-c4c(Cl)cccc4Cl)noc3C3CC3)ccc2C1 (single isomer, unassigned)
Resp: 106

Req: # query: Emax of entry O=C(O)c1cc(OC2CC2)c2nc(N3C[C@@H]4C[C@H]3C[C@H]4OCc3c(-c4c(F)cccc4Cl)noc3C3CC3)sc2c1
Resp: 109

Req: # query: Emax of entry O=C(O)c1cc(C(F)(F)F)c2nc(N3C[C@@H]4C[C@H]3C[C@H]4OC(=O)c3c(-c4c(Cl)cccc4Cl)noc3C3CC3)sc2c1
Resp: 102

Req: # query: Emax of entry CS(=O)(=O)NC(=O)c1cc(F)c2nc(N3C[C@@H]4C[C@H]3C[C@H]4OC(=O)c3c(-c4c(Cl)cccc4Cl)noc3C3CC3)sc2c1
Resp: 115

Req: # query: Emax of entry O=C(O)c1cc(OC(F)(F)F)c2nc(N3C[C@@H]4C[C@H]3C[C@H]4OC(=O)c3c(-c4c(Cl)cccc4Cl)noc3C3CC3)sc2c1
Resp: 112

Req: # query: Emax of entry O=C(NS(=O)(=O)C1CC1)c1ccc(N2C(=O)[C@@H]3C[C@H]2C[C@H]3OCc2c(-c3c(Cl)cccc3Cl)noc2C2CC2)cc1F
Resp: 107

====

biological target: ligand binding domain of human FXR (Homo sapiens (Human), UniProt Q96RI1); experiment: FXR ligand binding assay (LanthaScreen TR-FRET, SRC2-2 peptide recruitment); details: -log EC50, concentration required to produce 50% activation
Sequence (Q96RI1 262-486): as the sequence (Q96RI1 262-486, change not shown) above
Overview of reported pEC50 across a group of compounds:
Just the number, please, no unit attached.

Past entries and their recorded results:
compound	pEC50
O=C(O)c1ncc(N2C(=O)[C@@H]3C[C@H]2C[C@H]3OCc2c(-c3c(Cl)cccc3Cl)noc2C2CC2)cn1	6.4
O=C(O)Cc1ccc(N2C[C@@H]3C[C@H]2C[C@H]3OCc2c(-c3c(Cl)cccc3Cl)noc2C2CC2)c(F)c1	9.2
Cc1cccc(Cl)c1-c1noc(C2CC2)c1CO[C@@H]1C[C@@H]2C[C@H]1CN2c1ccc(CCC(=O)NS(C)(=O)=O)cc1F	8
O=C(O)c1ccc([N+]2([O-])C[C@@H]3C[C@H]2C[C@H]3OCc2c(-c3c(Cl)cccc3Cl)noc2C2CC2)cc1 (stereo partly drawn)	9.3
O=C(O)c1cc(O[C@H]2CCOC2)c2nc(N3C(=O)[C@@H]4C[C@H]3C[C@H]4OCc3c(-c4c(Cl)cccc4Cl)noc3C3CC3)sc2c1	8.4
Fc1cc(-c2nn[nH]n2)ccc1N1C[C@@H]2C[C@H]1C[C@H]2OCc1c(-c2c(Cl)cccc2Cl)noc1C1CC1	8.2

Req: # query: pEC50 of entry CC(C)c1cc(C(=O)O)cc2sc(N3C[C@@H]4C[C@H]3C[C@H]4OCc3c(-c4c(Cl)cccc4Cl)noc3C3CC3)nc12
Resp: 8.5

Req: # query: pEC50 of entry O=C(O)c1cc(OC2CC2)c2nc(N3C(=O)[C@@H]4C[C@H]3C[C@H]4OCc3c(-c4c(Cl)cccc4Cl)noc3C3CC3)sc2c1
Resp: 9

Req: # query: pEC50 of entry O=C(O)CCc1ccc(N2C(=O)[C@@H]3C[C@H]2C[C@H]3OCc2c(-c3c(Cl)cccc3Cl)noc2C2CC2)c(F)c1
Resp: 6.6
